Kindly supply the reported mitoOX values for the records listed here.
System: mtOXPHOS transcripts
Assay type: cell-based, mouse
Conditions: 20 μM; composite Z-score vs DMSO
Please reply with the number alone, leaving off any unit.

Please report the recorded mitoOX for CCCC(=O)O[C@]1(C(=O)CO)CC[C@H]2[C@@H]3CCC4=CC(=O)CC[C@]4(C)[C@H]3[C@@H](O)C[C@@]21C [hydrocortisone butyrate] .
0.916

Please report the recorded mitoOX for "NC(=O)c1ccc[n+]([C@@H]2O[C@H](COP(=O)([O-])OP(=O)(O)OC[C@H]3O[C@@H](n4cnc5c(N)ncnc54)[C@H](OP(=O)(O)O)[C@@H]3O)[C@@H](O)[C@H]2O)c1" .
−0.615

Please report the recorded mitoOX for CC(C)(O)[C@@H]1[C@H]2OC(=O)[C@@H]1[C@]1(O)C[C@H]3O[C@]34C(=O)O[C@H]2[C@]14C [picrotin] .
−0.167

Please report the recorded mitoOX for CN1Cc2c(N)cccc2C(c2ccccc2)C1 (stereo not drawn) [nomifensin] .
−0.026

Please report the recorded mitoOX for Cc1cc(O)cc(C)c1Cl [chloroxylenol] .
−0.614

Please report the recorded mitoOX for C=CCc1ccc(O)c(OC)c1 [eugenol] .
−0.320

Please report the recorded mitoOX for Oc1ncnc2[nH]ncc12 [allopurinol] .
−0.798

Please report the recorded mitoOX for CC(=O)OCC(COC(C)=O)OC(C)=O [triacetin] .
−0.569

Please report the recorded mitoOX for O=C(Nc1ccc([N+](=O)[O-])cc1Cl)c1cc(Cl)ccc1O [niclosamide] .
−2.299

Please report the recorded mitoOX for CC(COc1ccccc1)N(CCCl)Cc1ccccc1 (stereo not drawn) [phenoxybenzamine] .
−1.462

Please report the recorded mitoOX for CC(C)[N+](C)(CCOC(=O)C1c2ccccc2Oc2ccccc21)C(C)C [propantheline] .
0.783

Please report the recorded mitoOX for O=C(COc1ccc(Cl)cc1)N1CCN(Cc2ccc3c(c2)OCO3)CC1 [fipexide] .
−0.657

Please report the recorded mitoOX for Clc1ccc(C(c2ccccc2Cl)C(Cl)Cl)cc1 (stereo not drawn) [mitotane] .
−0.244

Please report the recorded mitoOX for COC(=O)C1=CCCN(C)C1 [arecoline] .
−1.072

Please report the recorded mitoOX for NC(=O)c1cc([N+](=O)[O-])cc([N+](=O)[O-])c1 [nitromide] .
−0.086

Please report the recorded mitoOX for Fc1ccc(C(c2ccccc2)(c2ccccc2F)n2ccnc2)cc1 (stereo not drawn) [flutrimazole] .
−0.915

Please report the recorded mitoOX for CN(C)C(=S)SSC(=S)N(C)C [thiram] .
−1.220

Please report the recorded mitoOX for CC[N+](C)(C)c1cccc(O)c1 [edrophonium] .
−0.183

Please report the recorded mitoOX for COc1cc2ccc(=O)oc2cc1O [scopoletin] .
0.101

Please report the recorded mitoOX for ClC1=C(Cl)C2(Cl)C3C4CC(C5OC45)C3C1(Cl)C2(Cl)Cl (stereo not drawn) [endrin] .
−0.385

Please report the recorded mitoOX for COC(=O)Nc1nc2ccc(C(=O)c3ccccc3)cc2[nH]1 [mebendazole, reference compound] .
0.824
